System: K-562 leukemia
Assay Text: NCI tumour cell line growth inhibition, 48 h
Measure: TGI

Consider the molecule "CN(C)C(=O)/N=c1\ss/c(=N\C(=S)N(C)C)n1-c1ccccc1" and give its recorded TGI.
> 56.1 µM

Respond only with TGI recorded for Nc1ncnc2c1nc(-c1ccccc1)n2C1OC(CO)C(O)C1O (stereo not given)
> 100 µM

Respond only with TGI recorded for "CC(=O)OCc1cc(OC(C)=O)cnc1COC(C)=O"
> 100 µM

Determine its reported TGI: CC(NC(=O)C(N)Cc1ccc(O)cn1)C(=O)O (stereo not given)
> 100 µM

Input CN1C2CCC1C(C(O)c1ccccc1[N+](=O)[O-])C(=O)C2 (stereo not given) , output reported TGI.
> 100 µM

For the molecule "CCc1ccccc1NC(=O)CCc1n[nH]c(=S)o1" , give its reported TGI.
> 100 µM

Respond only with TGI recorded for "N.N.N.N.N.N.[I-].[Os]"
> 100 µM

Could you please provide reported TGI for "CC(=O)CCNc1ccc(-c2cc(-c3ccc(N(C)C)cc3)nc3ccc4ccccc4c23)cc1" ? Thanks!
> 100 µM

Please look at this molecule and report its TGI: "Cn1c(=O)c2c(no[n+]2[O-])n(C)c1=O"
> 100 µM

Give the value of TGI reported for the following: "CS(=O)(=O)c1nc(-c2cc3c(c(S(C)(=O)=O)n2)CCCC3)cc2c1CCCC2"
> 100 µM

Supply TGI value. Item: "C=C1C(=O)O[C@@H]2C(=O)[C@@H](C)[C@@H]3C=CC(=O)[C@@]3(C)[C@@H](OC(=O)/C(C)=C\C)[C@H]12"
1.64 µM

# return recorded TGI for entry "C#CCN=C(N/N=C/c1ccc([N+](=O)[O-])o1)NS(=O)(=O)c1cc(C)c(Cl)cc1SCC(N)=O"
52.5 µM

Give the reported TGI for this molecule. N#CC(c1ccccc1)N1CCCN(C(C#N)c2ccccc2)C1c1ccccc1O (stereo not given)
> 100 µM

Item "CN=C1Nc2ccc(Cl)cc2C(c2ccccc2)=NN1C" : provide TGI
> 100 µM

Using the record for "CC1(C)CC[C@]2(C(=O)O)CC[C@]3(C)C(=CC[C@@H]4[C@@]5(C)C[C@H](O)[C@H](O)[C@@](C)(CO)C5=CC[C@]43C)[C@@H]2C1" , state its measured TGI.
> 100 µM

====

Tested on: HL-60(TB) leukemia
Assay Text: NCI tumour cell line growth inhibition, 48 h; in the data active = GI50 below about 0.43 µM; inactive = the rest
Where a SMILES comes first, the peptide text is derived from it.
Your response should consist of one outcome taken from active, inactive

Status in this test for "O=C1/C(=C\C(Cl)=C/c2ccc([N+](=O)[O-])cc2)SC(=S)N1CCc1ccc(O)cc1" ?
active

Check the results log: what was the call for CC(C)CC(NC(=O)C(CC(C)C)NC(=O)C(Cc1cnc[nH]1)NC(=O)C(C)NC(=O)C(NC(=O)C(C)NC(=O)C(Cc1c[nH]c2ccccc12)NC(=O)C(CCC(=O)O)NC(=O)C(N)Cc1ccccc1)C(C)C)C(N)=O (stereo not drawn) (H-FEWAVAHLL-NH2; configuration not given here) ?
inactive

Answer briefly: the call reported for "CN[C@]12CC3(C=CC(=O)C=C3)O[C@@]1(Cc1ccc(OC)cc1)N(C)C(=O)N2" in this assay.
inactive

====

Test system: HL-60(TB) leukemia
Assay Text: NCI tumour cell line growth inhibition, 48 h
Kindly state TGI for each of the entries shown.

Give me measured TGI, please, for this molecule: "O=c1[nH]c(-c2cccc(F)c2)nc2ccccc12"
> 100 µM

Provide TGI value for the following molecule: COC1C=CC(C(=O)[N+]2=Cc3[nH]c4ccccc4c3CC2)O1 (stereo unspecified)
> 100 µM

Dear colleague, please send me the reported TGI for CC1=NN(C(=O)CC(=O)Nc2ccccc2Cl)C(=O)C1N=Nc1ccc(C(=O)O)cc1 (stereo unspecified) when you can.
> 100 µM

Quote TGI reported for "ClCc1ccc(-c2ccc(Cn3cnc4c(Cl)nc(Cl)nc43)cc2)cc1" please.
> 100 µM

// Input: "CC[C@@]1(O)C(=O)OCc2c1cc1n(c2=O)Cc2c-1nc1ccc(O)cc1c2CC[Si](C)(C)C" . Output its TGI only.
< 0.001 µM

State its TGI for this molecule: Nc1ncnc2c1nc(-c1ccccc1)n2C1OC(CO)C(O)C1O (stereo unspecified)
> 100 µM
